test: Concentration of DFT analogs in rat plasma and cerebrospinal fluid after PO or SC dose; assay type: in vivo, Sprague-Dawley rats; details: male, Sprague-Dawley, rat, cerebrospinal fluid; rats, PO 300 μmol/kg, monosodium salt, 1 h; read-out: Concentration in cerebrospinal fluid
measurement.name: concentration at 1 h

INSERT INTO assay_data (compound, endpoint_result) VALUES
  ('COCCOCCOc1ccc(C2=N[C@@](C)(C(=O)O)CS2)c(O)c1 [III-A, (S)-4′-(HO)-DADFT-norPE]', '5.7 µM');

---

assay: Concentration of DFT analogs in rat plasma and cerebrospinal fluid after PO or SC dose; format: in vivo, Sprague-Dawley rats; details: male, Sprague-Dawley, rat, cerebrospinal fluid; rats, PO 300 μmol/kg, monosodium salt, 4 h; read-out: Concentration in cerebrospinal fluid
measurement.name: concentration at 4 h (nM)

INSERT INTO results (molecule, display_unit, endpoint_result) VALUES
  ('COCCOCCOc1ccc(C2=N[C@@](C)(C(=O)O)CS2)c(O)c1 [III-A, (S)-4′-(HO)-DADFT-norPE]', 'nM', 0);

---

assay: Concentration of DFT analogs in rat plasma and cerebrospinal fluid after PO or SC dose; assay type: in vivo, Sprague-Dawley rats; conditions: male, Sprague-Dawley, rat, cerebrospinal fluid; rats, PO 300 μmol/kg, monosodium salt, 8 h
measurement.name: concentration at 8 h (nM)

INSERT INTO results (molecule, display_unit, endpoint_result) VALUES
  ('COCCOCCOc1ccc(C2=N[C@@](C)(C(=O)O)CS2)c(O)c1 [III-A, (S)-4′-(HO)-DADFT-norPE]', 'nM', 0);

---

concentration at 1 h reference
assay: Concentration of DFT analogs in rat plasma and eyes after SC dose, rats perfused with saline; type: in vivo; conditions: rat, plasma; rats perfused with saline, SC 300 μmol/kg, one hour post dose
measurement.name: concentration at 1 h

INSERT INTO measurements (compound, endpoint_result) VALUES
  ('COc1ccc(C2=N[C@@H](C(=O)O)CS2)c(O)c1', '663 µM'),
  ('COCCOCCOc1ccc(C2=N[C@@](C)(C(=O)O)CS2)c(O)c1 [III-A, (S)-4′-(HO)-DADFT-norPE]', '218 µM');

---

test: Concentration of DFT analogs in rat plasma and cerebrospinal fluid after PO or SC dose; assay type: in vivo, Sprague-Dawley rats; details: male, Sprague-Dawley, rat, plasma; rats, PO 300 μmol/kg, monosodium salt, 4 h; read-out: Concentration in plasma
concentration at 4 h reference
measurement.name: concentration at 4 h

INSERT INTO measurements (compound, measurement_name, endpoint_result) VALUES
  ('COCCOCCOc1ccc(C2=N[C@@](C)(C(=O)O)CS2)c(O)c1 [III-A, (S)-4′-(HO)-DADFT-norPE]', 'concentration at 4 h', '2000 nM'),
  ('COCCOCCOCCOc1ccc(C2=N[C@@](C)(C(=O)O)CS2)c(O)c1 [IV-A, (S)-4′-(HO)-DADFT-PE]', 'concentration at 4 h', '2000 nM');

---

experiment: Concentration of DFT analogs in rat plasma and cerebrospinal fluid after PO or SC dose; assay type: in vivo, Sprague-Dawley rats; conditions: male, Sprague-Dawley, rat, cerebrospinal fluid; rats, PO 300 μmol/kg, monosodium salt, 0.5 h; read-out: Concentration in cerebrospinal fluid
concentration at 0.5 h reference
measurement.name: concentration at 0.5 h (µM)

INSERT INTO results (compound, measurement_name, endpoint_result) VALUES
  ('COCCOCCOCCOc1ccc(C2=N[C@@](C)(C(=O)O)CS2)c(O)c1 [IV-A, (S)-4′-(HO)-DADFT-PE]', 'concentration at 0.5 h', 2.14),
  ('COCCOCCOc1ccc(C2=N[C@@](C)(C(=O)O)CS2)c(O)c1 [III-A, (S)-4′-(HO)-DADFT-norPE]', 'concentration at 0.5 h', 8.07);

---

concentration at 0.5 h reference
assay: Concentration of DFT analogs in rat plasma and cerebrospinal fluid after PO or SC dose; format: in vivo, Sprague-Dawley rats; conditions: male, Sprague-Dawley, rat, plasma; rats, PO 300 μmol/kg, monosodium salt, 0.5 h; read-out: Concentration in plasma
measurement.name: concentration at 0.5 h (µM)

INSERT INTO results (molecule, measurement_name, endpoint_result) VALUES
  ('COCCOCCOCCOc1ccc(C2=N[C@@](C)(C(=O)O)CS2)c(O)c1 [IV-A, (S)-4′-(HO)-DADFT-PE]', 'concentration at 0.5 h', 142),
  ('COCCOCCOc1ccc(C2=N[C@@](C)(C(=O)O)CS2)c(O)c1 [III-A, (S)-4′-(HO)-DADFT-norPE]', 'concentration at 0.5 h', 424);

---

concentration at 1 h reference
assay: Concentration of DFT analogs in rat plasma and eyes after SC dose, rats not perfused; assay type: in vivo; conditions: rat, plasma; non-perfused rats, SC 300 μmol/kg, one hour post dose
measurement.name: concentration at 1 h (µM)

INSERT INTO results (molecule, measurement_name, display_unit, endpoint_result) VALUES
  ('COCCOCCOc1ccc(C2=N[C@@](C)(C(=O)O)CS2)c(O)c1 [III-A, (S)-4′-(HO)-DADFT-norPE]', 'concentration at 1 h', 'µM', 218),
  ('COc1ccc(C2=N[C@@H](C(=O)O)CS2)c(O)c1', 'concentration at 1 h', 'µM', 701);
